# tested_target: erythrocytes infected with P. falciparum field isolate 10936
# test_details: flow cytometry, staining of IEs
readout_type: % parasite recognition (%)

{"binder": "MGC34 (antibody) VH: EVQLVESGGGLVQPGGSLRLSCEASGFTFSSYWMSWVRQAPGKGLEWVANINQDGSQKDYVDSVKGRFTISRDTAKNSLYLQMNSLRAEDTAVYYCARERLCTDDSHMHGEEDLPRPSISAEPGTVIPLGSHVTFVCRGPVGIHTFRLERESRSLYTETEDVTQVSPSESEARFRIESVTEGNAGLYRCVYYKPPKWSEQSDYLELLVKGEDVTRALFTHCGGDGKESDYHMDVWGKGTTVTVSS VL: QTVVTQEPSLTVSPGGTVTLTCASSTGAVTSGYYPSWFHQKPGQPVRALIYSTSKTHSWTPARFSGSLLGGKAALTLSNVQPEDEADYYCLLYYGGPQPWVFGGGTKLTVQ", "readout_type": "% parasite recognition", "unit_name": "%", "test_value": 11.3}
{"binder": "MGC1 (antibody) VH: EVQLVESGGGLVQPGGSLRLSCVASGFNFRKSWMGWVRQAPGKGLEWVANIREDGSESFYADSVKGRFTVSRDNAKKSLYLHINSLRAEDTAVYYCARDRFCNDDEIHRHGQEDLPRPSISAAEGTVIPLGSHVTFVCRGPVGVQTFRLEKDSRSIYNDTENVSQPSPSESEARFRIDSVSEGNAGLYRCVYYKAPKWSAQSDYLELLVKGQEVTWALFTSCGGDGEEPDYDMDVRGKGTTVTVSS VL: DIVMTQSPDSLAVSLGERATINCKSSQSVLYRSKNKNYLAWFQQKPGQPPKVLIYSTSTRASGVPDRFTGSGSGTDFTLTISSLQAEDVAVYYCLQYYITPYTFGQGTKLEIK", "readout_type": "% parasite recognition", "unit_name": "%", "test_value": 2}

Sourced from patent US20180186897A1
